Where do the numbers come from? From ChEMBL document CHEMBL3576840.

protocol.details: Induction of hemolysis in human RBCs incubated for 1 hr
Format: cell-based, Erythrocyte
measurement.parameters: red blood cells
value.kind: HC50 at 1 h

{"smiles": "CC(=O)N[C@@H](CCCCN)CN(CC(=O)N[C@@H](Cc1ccccc1)CN(CC(=O)N[C@@H](CCCCN)CN(CC(=O)N[C@@H](Cc1ccccc1)CN(CC(=O)N[C@@H](CCCCN)CN(CC(=O)N[C@@H](Cc1ccccc1)CN(CC(=O)N[C@@H](CCCCN)CN(CC(=O)N[C@@H](Cc1ccccc1)CN(CC(N)=O)S(=O)(=O)Cc1ccccc1)S(=O)(=O)CCN)S(=O)(=O)Cc1ccccc1)S(=O)(=O)Cc1ccccc1)S(=O)(=O)Cc1ccccc1)S(=O)(=O)CCN)S(=O)(=O)Cc1ccccc1)S(=O)(=O)Cc1ccccc1", "value.kind": "HC50 at 1 h", "reported": "80 µg/mL"}
{"smiles": "NCCCC[C@H](N)CN(CC(=O)N[C@@H](Cc1ccccc1)CN(CC(=O)N[C@@H](Cc1ccccc1)CN(CC(=O)N[C@@H](Cc1ccccc1)CN(CC(=O)N[C@@H](CCCCN)CN(CC(N)=O)S(=O)(=O)CCN)S(=O)(=O)Cc1ccccc1)S(=O)(=O)CCN)S(=O)(=O)Cc1ccccc1)S(=O)(=O)CCN", "value.kind": "HC50 at 1 h", "reported": "> 250 µg/mL"}
{"smiles": "NCCCC[C@@H](CN(CC(N)=O)S(=O)(=O)CCN)NC(=O)CN(C[C@H](Cc1ccccc1)NC(=O)CN(C[C@H](Cc1ccccc1)NC(=O)CN(C[C@H](Cc1ccccc1)NC(=O)CN(C[C@H](CCCCN)NC(=O)CN(C[C@H](Cc1ccccc1)NC(=O)CN(C[C@H](Cc1ccccc1)NC(=O)CN(C[C@@H](N)Cc1ccccc1)S(=O)(=O)Cc1ccccc1)S(=O)(=O)CCN)S(=O)(=O)Cc1ccccc1)S(=O)(=O)CCN)S(=O)(=O)Cc1ccccc1)S(=O)(=O)CCN)S(=O)(=O)Cc1ccccc1", "value.kind": "HC50 at 1 h", "reported": "100 µg/mL"}
{"smiles": "NCCCC[C@@H](CN(CC(N)=O)S(=O)(=O)CCN)NC(=O)CN(C[C@H](Cc1ccccc1)NC(=O)CN(C[C@H](Cc1ccccc1)NC(=O)CN(C[C@H](Cc1ccccc1)NC(=O)CN(C[C@H](CCCCN)NC(=O)CN(C[C@@H](N)Cc1ccccc1)S(=O)(=O)Cc1ccccc1)S(=O)(=O)CCN)S(=O)(=O)Cc1ccccc1)S(=O)(=O)CCN)S(=O)(=O)Cc1ccccc1", "value.kind": "HC50 at 1 h", "reported": "> 250 µg/mL"}
{"smiles": "NCCCC[C@@H](CN(CC(N)=O)S(=O)(=O)CCN)NC(=O)CN(C[C@H](Cc1ccccc1)NC(=O)CN(C[C@H](Cc1ccccc1)NC(=O)CN(C[C@@H](N)Cc1ccccc1)S(=O)(=O)Cc1ccccc1)S(=O)(=O)CCN)S(=O)(=O)Cc1ccccc1", "value.kind": "HC50 at 1 h", "reported": "> 250 µg/mL"}
{"smiles": "CC(=O)N[C@@H](CCCCN)CN(CC(=O)N[C@@H](Cc1ccccc1)CN(CC(=O)N[C@@H](CCCCN)CN(CC(=O)N[C@@H](Cc1ccccc1)CN(CC(=O)N[C@@H](CCCCN)CN(CC(=O)N[C@@H](Cc1ccccc1)CN(CC(=O)N[C@@H](CCCCN)CN(CC(=O)N[C@@H](Cc1ccccc1)CN(CC(N)=O)S(=O)(=O)Cc1ccccc1)S(=O)(=O)CCN)S(=O)(=O)Cc1ccccc1)S(=O)(=O)CCN)S(=O)(=O)Cc1ccccc1)S(=O)(=O)CCN)S(=O)(=O)Cc1ccccc1)S(=O)(=O)CCN", "value.kind": "HC50 at 1 h", "reported": "150 µg/mL"}
{"smiles": "NCCCC[C@@H](CN(CC(N)=O)S(=O)(=O)CCN)NC(=O)CN(C[C@H](Cc1ccccc1)NC(=O)CN(C[C@H](Cc1ccccc1)NC(=O)CN(C[C@H](Cc1ccccc1)NC(=O)CN(C[C@H](CCCCN)NC(=O)CN(C[C@H](Cc1ccccc1)NC(=O)CN(C[C@@H](N)Cc1ccccc1)S(=O)(=O)CCN)S(=O)(=O)Cc1ccccc1)S(=O)(=O)CCN)S(=O)(=O)Cc1ccccc1)S(=O)(=O)CCN)S(=O)(=O)Cc1ccccc1", "value.kind": "HC50 at 1 h", "reported": "> 250 µg/mL"}
{"smiles": "CC(C)C[C@H](N)CN(CC(=O)N[C@@H](CC(C)C)CN(CC(=O)N[C@@H](CC(C)C)CN(CC(=O)N[C@@H](CCCCN)CN(CC(=O)N[C@@H](CC(C)C)CN(CC(=O)N[C@@H](CC(C)C)CN(CC(=O)N[C@@H](CC(C)C)CN(CC(=O)N[C@@H](CCCCN)CN(CC(N)=O)S(=O)(=O)CCN)S(=O)(=O)CC(C)C)S(=O)(=O)CCN)S(=O)(=O)CC(C)C)S(=O)(=O)CCN)S(=O)(=O)CC(C)C)S(=O)(=O)CCN)S(=O)(=O)CC(C)C", "value.kind": "HC50 at 1 h", "reported": "> 250 µg/mL"}
{"smiles": "CC(=O)N[C@@H](Cc1ccccc1)CN(CC(=O)N[C@@H](Cc1ccccc1)CN(CC(=O)N[C@@H](Cc1ccccc1)CN(CC(=O)N[C@@H](CCCCN)CN(CC(=O)N[C@@H](Cc1ccccc1)CN(CC(=O)N[C@@H](Cc1ccccc1)CN(CC(=O)N[C@@H](Cc1ccccc1)CN(CC(=O)N[C@@H](CCCCN)CN(CC(N)=O)S(=O)(=O)CCN)S(=O)(=O)Cc1ccccc1)S(=O)(=O)CCN)S(=O)(=O)Cc1ccccc1)S(=O)(=O)CCN)S(=O)(=O)Cc1ccccc1)S(=O)(=O)CCN)S(=O)(=O)Cc1ccccc1", "value.kind": "HC50 at 1 h", "reported": "75 µg/mL"}
